# ASSAY_TARGET: pooled human IgG
PROPERTY_MEASURED: Enzyme Activity Endpoint Assay (purified): scIgG (ng/µL)

PROTEIN	VALUE_UNITS	NUMERIC_READOUT
PRT-73 (protein) MANQEIRYSEVTPYHVTSVWTKGVTPPANFTQGEDVFHAPYVANQGWYDITKTFNGKDDLLCGAATAGNMLHWWFDQNKEKIEAYLKKHPEKQKIMFGDQELLDVRKVINTKDDQTNSELFNYFRDKAFPGLSARRLGVMPDLVLDMFINGYYLNVTKTQTTDVNRTYQEKDRRGGIFDAVFTRGDQSKLLTSRHDFKEKNLKEISDLIKKELTEGKALGLSHTYANVRINHVINLWGADFDSNGNLKAIYVTDSDSNASIGMKKYFVGVNSAGKVAISAKEIKEDNIGAQVLGLFTLSTGQDSWNQTN	ng/µL	5
PRT-550 (protein) MANQEIRYSEETPKTITSIWTKGVTPPTDFIKNEDVLHAPYIANQGWYDITKTFNGKDDLLCGAATAGNMLHWWFDQNKEEIENYLKKHPEKQKINFNGEQMFDVKEAIDTKDSQTDSKLFEYFKDKAFPYLSTKHLGVFPDHVIDMFINGYRLSLTNHGPTPVKRGTKDPRGGIFDAVFTRGDQSKLLTARHDFKEKTLNEISDLIKQELTEGKALGLSHTYANVRINHVINLWGADFNSEGNLEAIYVTDSDSNASIGMKKYYVGVNAAGKVAISAKEIEGDNIGAQVLGLFTLSTGQDIWNQTNLEHHHHHH	ng/µL	0

All values here come from patent US20250027068.
